- METHOD DESCRIPTION: Clinical pharmacokinetics of carmegliptin (plasma and urine) alone or with verapamil
- Assay type: in vivo, human
- STATED CONDITIONS: male, human, plasma, oral, carmegliptin 150 mg + acute verapamil 80 mg t.i.d., day 10; geometric mean (CV%); read-out: AUClast
- Procedure: All urine produced by subjects during each sampling interval was collected in pre-weighed polyethylene containers. […] Plasma and urine samples were analyzed for carmegliptin by high-performance liquid chromatography combined with tandem mass spectrometric detection at F. Hoffmann-La Roche Ltd, Basel, Switzerland. The lower limit of quantification was 1 ng/mL for plasma and 20 ng/mL for urine.
PROPERTY MEASURED: AUC(0-t)
Hey, just the number and the unit after it is fine.

Entry "COc1cc2c(cc1OC)[C@@H]1C[C@H](N)[C@@H](N3C[C@@H](CF)CC3=O)CN1CC2" ; AUC(0-t) = 3650 ng·h/mL

* * *

- METHOD DESCRIPTION: Clinical pharmacokinetics of carmegliptin (plasma and urine) alone or with verapamil
- Assay type: in vivo, human
- STATED CONDITIONS: male, human, plasma, oral, carmegliptin 150 mg + acute verapamil 80 mg t.i.d., day 10; geometric mean (CV%); read-out: Vz/F
PROPERTY MEASURED: Vd/F (L)
All answers are understood in L, so give the number only.

Record "COc1cc2c(cc1OC)[C@@H]1C[C@H](N)[C@@H](N3C[C@@H](CF)CC3=O)CN1CC2" . Reported Vd/F: 1110

* * *

- METHOD DESCRIPTION: Clinical pharmacokinetics of carmegliptin (plasma and urine) alone or with verapamil
- Format: in vivo, human
- STATED CONDITIONS: male, human, plasma, oral, carmegliptin 150 mg + chronic verapamil 80 mg t.i.d., day 15; geometric mean (CV%); read-out: Vz/F
PROPERTY MEASURED: Vd/F (L)
Field: numeric (L). Do not append units.

Sure, the documented Vd/F for COc1cc2c(cc1OC)[C@@H]1C[C@H](N)[C@@H](N3C[C@@H](CF)CC3=O)CN1CC2 [Carmegliptin] is 678

* * *

- METHOD DESCRIPTION: Clinical pharmacokinetics of carmegliptin (plasma and urine) alone or with verapamil
- Type: in vivo, human
- STATED CONDITIONS: male, human, plasma, oral, carmegliptin 150 mg + chronic verapamil 80 mg t.i.d., day 15; median (range)
PROPERTY MEASURED: Tmax (h)
Write down the numeric answer in h and omit the unit.

// field: Tmax; key: "COc1cc2c(cc1OC)[C@@H]1C[C@H](N)[C@@H](N3C[C@@H](CF)CC3=O)CN1CC2" ; value = 1.5
